# Test system: CAG foci in primary DM1 patient myoblasts
# Test method notes: Single-cut screening: CAG foci staining
# Format: cell-based, human
# Setup conditions: single sgRNA, vehicle
Class membership depends on % of CAG foci positive nuclei (Vehicle) alone; the intervals are bottom (below 1%), middle (1% to below 2%), top (2% or more)

Substance | Class label
ACCTCGTCCTCCGACTCGCTGA (guide RNA; chemistry not fully specified) [SluD65] | middle
ccccggccGCTAGGGGGCGGGC (guide RNA; as printed in the source, key not given here) [SluU39] | bottom
AACCAACGATAGGTGGGGGTGC (guide RNA; chemistry not fully specified) [SluD24] | top
GCCCCGTTGGAAGACTGAGTGC (listed as DNA, chemistry not fully specified) [SluU08] | top
CAGGCTGAGGCCCTGACGTGGA (guide RNA; chemistry not fully specified) [SluD07] | top
GATGGAGGGCCTTTTATTCGCG (guide RNA; chemistry not fully specified) [SluD98] | bottom
ctccctccccggccGCTAGGGG (guide RNA; as printed in the source, key not given here) [SluU45] | middle
GGGGGTGCGTGGAGGATGGAAC (guide RNA; chemistry not fully specified) [SluD20] | middle
AGCGGTTGTGAACTGGCAGGCG (guide RNA; chemistry not fully specified) [SluU19] | middle
GTATTTATTGTCTGTCCCCACC (guide RNA; chemistry not fully specified) [SluD84] | middle
cccctccctccccggccGCTAG (guide RNA; as printed in the source, key not given here) [SluU46] | bottom
AGCGCAAGTGAGGAGGGGGGCG (guide RNA; chemistry not fully specified) [SluD45] | middle
GCCCCGGGCACTCAGTCTTCCA (guide RNA; chemistry not fully specified) [SluU13] | middle
GGGGTCTCAGTGCATCCAAAAC (guide RNA; chemistry not fully specified) [SluD78] | top
gccgggtccgcggccggcgaac (GCCGGGTCCGCGGCCGGCGAAC; guide RNA; chemistry not fully specified) [SluU57] | middle
TCTTGTGCATGACGCCCTGCTC (guide RNA; chemistry not fully specified) [SluD31] | top
CGCCCCCTAGCggccggggagg (guide RNA; as printed in the source, key not given here) [SluU41] | bottom
CCTGCAGTTTGCCCATCCACGT (guide RNA; chemistry not fully specified) [SluD11] | middle
CTCCACGCACCCCCACCTATCG (guide RNA; chemistry not fully specified) [SluD22] | bottom
TCCAAAACGTGGATTGGGGTTG (guide RNA; chemistry not fully specified) [SluD74] | top
AGACAATAAATACCGAGGAATG (guide RNA; chemistry not fully specified) [SluD82] | middle
GGCGCGGCTTCTGTGCCGTGCC (guide RNA; chemistry not fully specified) [SluU16] | middle
GTCCAGAGCTTTGGGCAGATGG (listed as DNA, chemistry not fully specified) [SluD100] | top
GCTTTTGCCAAACCCGCTTTTT (guide RNA; chemistry not fully specified) [SluD40] | middle
CTGCAGTTTGCCCATCCACGTC (guide RNA; chemistry not fully specified) [SluD10] | top
cggggagggaggggccgggtcc (CGGGGAGGGAGGGGCCGGGTCC; guide RNA; chemistry not fully specified) [SluU52] | bottom
